For each entry below, report its log10 of IC50 value.
Transform log10 | Measure IC50 | Unit nM

Prompt: Reported log10 of IC50 for UniProt P30531, given COCc1ccsc1C(=CCCN1CCC[C@@H](C(=O)O)C1)c1sccc1COC ?
Completion: 3.45

Prompt: Reported log10 of IC50 for UniProt P30531, given COCc1ccsc1C(=CCCN1CCCCC1C(=O)O)c1sccc1COC (configuration not stated) ?
Completion: 4.09

Prompt: Reported log10 of IC50 for UniProt P30531, given O=C(O)C1CCCCN1CCC=C(c1sccc1COC1CCCCC1)c1sccc1COC1CCCCC1 (configuration not stated) ?
Completion: 2.97

Prompt: Reported log10 of IC50 for UniProt P30531, given O=C(O)C1CCN(CCC=C(c2sccc2COc2ccccc2)c2sccc2COc2ccccc2)CC1 ?
Completion: 3.18

Prompt: Reported log10 of IC50 for UniProt P30531, given O=C(O)[C@@H]1CCCN(CCC=C(c2sccc2COCc2ccccc2)c2sccc2COCc2ccccc2)C1 ?
Completion: 2.92
